Target: T1, pKal catalytic domain Mutant 2 (human, UniProt P03952 391-638, limits assumed)
T1 construct: domain: catalytic domain; Expressed in Pichia pastoris, purified by IMAC; not shown: His tag fusion
T1 sequence (P03952 other isoform, or with tags, fused parts or gaps mutant limits assumed): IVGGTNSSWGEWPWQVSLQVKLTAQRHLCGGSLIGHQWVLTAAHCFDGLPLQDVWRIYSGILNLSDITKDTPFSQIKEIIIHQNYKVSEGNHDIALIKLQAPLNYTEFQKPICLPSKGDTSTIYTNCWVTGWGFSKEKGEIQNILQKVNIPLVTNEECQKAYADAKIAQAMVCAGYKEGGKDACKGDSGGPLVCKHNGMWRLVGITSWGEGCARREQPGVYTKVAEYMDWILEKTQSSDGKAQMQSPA
Test: apparent Ki (Ki,app), enzyme inhibition, pKal catalytic domain Mutant 2
Measured pKi of individual entries
pKi (log units): -log10 of the concentration in mol/L.

Look over these answered cases.
>>> number("X115-B07 (antibody, V domains shown, also called 559A-X115-B07; 559A-X0115-B07) VH: EVQLLESGGGLVQPGGSLRLSCAASGFTFSHYLMTWVRQAPGKGLEWVSYISPSGGHTIYADSVKGRFTISRDNSKNTLYLQMNSLRAEDTAVYYCAMVGQGIRGRSRTSYFAQWGQGTLVTVSS VL: EIVLTQSPGTLSLSPGERATLSCRTSQFVNSNYLAWYQQKPGQAPRLLIYGASSRATGIPDRFSGSGSGTDFTLTISRLEPEDFAVYYCQQSSRTPWTFGQGTKVEIK")
7.33
>>> number("M6-D09 (antibody, V domains shown, also called M06-D09; 559A-M06-D09) VH: EVQLLESGGGLVQPGGSLRLSCAASGFTFSFYYMVWVRQAPGKGLEWVSVIYPSGGITVYADSVKGRFTISRDNSKNTLYLQMNSLRAEDTAVYYCARDKWAVMPPYYYYAMDVWGQGTTVTVSS VL: DIQMTQSPSSLSASVGDRVTITCRASQSIRNYLNWYQQKPGKAPNLLIYAASTLQSGVPARFSGSGSGTDFTLTISSLQPEDFATYYCQQLSGYPHTFGQGTKLEIK")
7.87

Please report the recorded pKi for X115-G04 (antibody, V domains shown, also called 559A-X115-G04; 559A-X0115-G04) VH: EVQLLESGGGLVQPGGSLRLSCAASGFTFSHYIMMWVRQAPGKGLEWVSGIYSSGGITVYADSVKGRFTISRDNSKNTLYLQMNSLRAEDTAVYYCAYRRTGVPRRDEFDIWGQGTMVTVSS VL: DIQMTQSPSTLSASVGDRVTITCRASQSISSWLAWYQQKPGKAPKLLIYKASTLESGVPSRFSGSGSGTEFTLTISSLQPDDFATYYCQQYNTYWTFGQGTKVEIK . 8.66

Hey, just so you know, these numbers are from patent US9266964.
